Where these numbers come from: patent US10723707B2

minimal effective concentration values, listed per item
- System: interferon-stimulated responsive elements (ISRE)
- protocol.text: Activation of ISRE promoter elements in HEK-ISREluc cells by conditioned media from PBMC
- Format: cell-based
- details: Homo sapiens, compound concentration applied to PBMCs, supernatant transferred to HEK-ISREluc cells, 24 hours, read-out: HEK-ISRE luc (LEC)
readout.label: minimal effective concentration

compound: Cc1ccc2c(N[C@H](C)c3ccccn3)nc(N)nc2c1 (single isomer, unassigned)
readout.label: minimal effective concentration
assay.value: 0.11 µM
--
compound: COc1cccc2nc(N)nc(NCc3cc(C)on3)c12
readout.label: minimal effective concentration
assay.value: 0.036 µM
--
compound: C[C@@H](Nc1nc(N)nc2cc(Cl)ccc12)c1ccccn1 (single isomer, unassigned)
readout.label: minimal effective concentration
assay.value: 0.38 µM
--
compound: COc1cccc2nc(N)nc(N[C@H](C)c3cnn(C)c3)c12 (single isomer, unassigned)
readout.label: minimal effective concentration
assay.value: 0.55 µM

====

Each item that follows carries a reported minimal effective concentration.
- Test system: interferon-stimulated responsive elements (ISRE)
- protocol.text: Activation of ISRE promoter elements in HEK-ISREluc cells by conditioned media from PBMC
- Assay type: cell-based
- details: Homo sapiens, compound concentration applied to PBMCs, supernatant transferred to HEK-ISREluc cells, 24 hours, read-out: HEK-ISRE luc (LEC)
- Experimental: The potential of compounds to induce IFN-I was also evaluated by measuring the activation of interferon-stimulated responsive elements (ISRE) by conditioned media from PBMC. The ISRE element of sequence GAAACTGAAACT (SEQ ID: 1) is highly responsive to the STAT1-STAT2-IRF9 transcription factor, activated upon binding of IFN-I to their receptor IFNAR (Clontech, PT3372-5W). […]
readout.label: minimal effective concentration (µM)

compound: C[C@@H](Nc1nc(N)nc2ccccc12)c1ccccn1 (single isomer, unassigned)
tested.system: interferon-stimulated responsive elements (ISRE)
assay.value: 0.61
--
compound: Cc1cc(CNc2nc(N)nc3cccc(F)c23)no1
tested.system: interferon-stimulated responsive elements (ISRE)
assay.value: 0.082
--
compound: COc1cccc2nc(N)nc(N[C@H](C)c3nccs3)c12 (single isomer, unassigned)
tested.system: interferon-stimulated responsive elements (ISRE)
assay.value: 0.11
--
compound: COc1cccc2nc(N)nc(N[C@H](C)c3ccccn3)c12 (single isomer, unassigned)
tested.system: interferon-stimulated responsive elements (ISRE)
assay.value: 0.49

====

- tested.system: human TLR8 (Homo sapiens, UniProt Q9NR97)
- Construct: expressed in transfected cells; host or cells: HEK293
- Sequence (Q9NR97 27-1041): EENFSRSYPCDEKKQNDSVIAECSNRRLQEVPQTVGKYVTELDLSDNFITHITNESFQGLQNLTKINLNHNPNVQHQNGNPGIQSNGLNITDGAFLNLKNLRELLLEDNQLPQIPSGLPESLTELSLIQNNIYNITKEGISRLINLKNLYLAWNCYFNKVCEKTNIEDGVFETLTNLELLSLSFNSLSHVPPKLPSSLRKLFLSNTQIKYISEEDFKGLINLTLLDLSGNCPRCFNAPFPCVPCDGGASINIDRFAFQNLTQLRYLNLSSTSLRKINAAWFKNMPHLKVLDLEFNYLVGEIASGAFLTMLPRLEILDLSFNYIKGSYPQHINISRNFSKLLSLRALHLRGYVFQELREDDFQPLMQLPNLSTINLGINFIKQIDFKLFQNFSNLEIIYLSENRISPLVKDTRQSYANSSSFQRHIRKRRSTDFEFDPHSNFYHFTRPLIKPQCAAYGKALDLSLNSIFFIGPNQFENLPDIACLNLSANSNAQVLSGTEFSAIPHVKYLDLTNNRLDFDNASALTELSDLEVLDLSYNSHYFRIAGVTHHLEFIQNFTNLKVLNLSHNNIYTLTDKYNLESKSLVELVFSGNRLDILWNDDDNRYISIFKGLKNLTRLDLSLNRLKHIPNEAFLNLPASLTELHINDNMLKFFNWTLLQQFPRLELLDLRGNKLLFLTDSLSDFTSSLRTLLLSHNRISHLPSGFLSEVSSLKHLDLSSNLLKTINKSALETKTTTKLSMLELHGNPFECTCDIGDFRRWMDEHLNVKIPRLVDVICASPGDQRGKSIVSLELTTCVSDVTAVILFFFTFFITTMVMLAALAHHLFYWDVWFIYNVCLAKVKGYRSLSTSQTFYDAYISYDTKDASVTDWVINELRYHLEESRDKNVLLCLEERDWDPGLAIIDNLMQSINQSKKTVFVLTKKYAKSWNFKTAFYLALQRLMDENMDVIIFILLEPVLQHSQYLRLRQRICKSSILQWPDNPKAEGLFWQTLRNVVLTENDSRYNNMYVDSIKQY
- protocol.text: TLR8 cellular NFκB-luc reporter assay in transiently transfected HEK293 cells
- Format: cell-based
- details: lowest effective concentration, 6 hours incubation
Let's look at some compounds and their measured Human TLR 8 (LEC).

compound: COCCOc1cccc2nc(N)nc(NCc3cc(C)on3)c12
limit.operator: =
Human TLR 8 (LEC) (µM): 8.15

compound: COc1cccc2nc(N)nc(N[C@H](C)c3cnn(C)c3)c12 (single isomer, unassigned)
limit.operator: =
Human TLR 8 (LEC) (µM): 9.14

compound: Cc1cc(CNc2nc(N)nc3cc(F)ccc23)no1
limit.operator: =
Human TLR 8 (LEC) (µM): 5.22

compound: COc1ccc2c(N[C@H](C)c3ccccn3)nc(N)nc2c1 (single isomer, unassigned)
limit.operator: >
Human TLR 8 (LEC) (µM): 25
